Please go through the items and note down their growth.
test system: OVCAR-3 ovarian; test: NCI-60 one-dose screen, 48 h (100 = growth as untreated, 0 = no growth, -100 = all killed); conditions: 10 µM unless noted
About 83,000 compounds went through this panel and 20% of them were active in at least one assay; those are over-represented in the sample as a whole. Active and inactive are the calls of the source. The calls were made as follows: active = growth percent below 10; inactive = the rest.

INPUT: Can you look up the measured growth of `Cc1cc(=O)[nH]c(N=Nc2c(O)[nH]c3ccccc23)n1` for me?
OUTPUT: 112% (inactive)

INPUT: Can you look up the measured growth of `Clc1cccc(Cl)c1C(Nc1nc2ccccc2s1)Nc1nc2ccccc2s1` for me?
OUTPUT: 114% (inactive)

INPUT: Can you look up the measured growth of `COc1ccc(C(=O)Nn2c(NCC(=O)N3c4ccccc4Sc4ccccc43)nnc2-c2ccc(O)cc2)cc1` for me?
OUTPUT: 121% (inactive)
